# Assay Method Text: Fraction unbound in CD1 mouse plasma at 5 mg/kg, iv
# Assay type: ADME, organism-based
# Parameters: dose 5 mg/kg, route intravenous
Rule: fraction unbound below 0.4 gives 1, anything at or above gives -1.

CC[C@H]1OC(=O)[C@H](C)[C@@H](O[C@H]2C[C@@](C)(OC)[C@@H](O)[C@H](C)O2)[C@H](C)[C@@H](O[C@@H]2O[C@H](C)C[C@H](N(C)C)[C@H]2O)[C@](C)(O)C[C@@H](C)CN(CCC(=O)N[C@H](C)c2cccc3ccccc23)[C@H](C)[C@@H](O)[C@]1(C)O	1
CC[C@H]1OC(=O)[C@H](C)[C@@H](O[C@H]2C[C@@](C)(OC)[C@@H](O)[C@H](C)O2)[C@H](C)[C@@H](O[C@@H]2O[C@H](C)C[C@H](N(C)C)[C@H]2O)[C@](C)(O)C[C@@H](C)CN(CCCNC(=O)CCc2ccccc2)[C@H](C)[C@@H](O)[C@]1(C)O	-1
CC[C@H]1OC(=O)[C@H](C)[C@@H](O[C@H]2C[C@@](C)(OC)[C@@H](O)[C@H](C)O2)[C@H](C)[C@@H](O[C@@H]2O[C@H](C)C[C@H](N(C)C)[C@H]2O)[C@](C)(O)C[C@@H](C)CN(CCCNCc2ccnc3ccccc23)[C@H](C)[C@@H](O)[C@]1(C)O	-1

From here, focus on the item given below.
-- ask Regarding `CC[C@H]1OC(=O)[C@H](C)[C@@H](O[C@H]2C[C@@](C)(OC)[C@@H](O)[C@H](C)O2)[C@H](C)[C@@H](O[C@@H]2O[C@H](C)C[C@H](N(C)C)[C@H]2O)[C@](C)(O)C[C@@H](C)CN(CCCNc2ccnc3cc(Cl)ccc23)[C@H](C)[C@@H](O)[C@]1(C)O` , kindly confirm whether its fraction unbound is beneath 0.4.
-- reply -1
